tested on: HEPG2; experiment: Euclidean distance of Cell Painting phenotypic profile (signed KS, 77 features) to DMSO centroid (dimensionless distance); 5 or 10 uM (library dependent); higher = stronger phenotypic change vs DMSO (phenoactivity); conditions: 48 h
Experimental Endpoint: Euclidean distance

*Q* # lookup: Euclidean distance of C[C@]12CCC(=O)C=C1[C@@H]1C[C@@H]1[C@H]1[C@@H]3[C@@H]4C[C@@H]4[C@@]4(CCC(=O)O4)[C@@]3(C)CC[C@@H]12
*A* 0.612

*Q* # lookup: Euclidean distance of OCCn1cc(-c2cnc3nnn(Cc4ccc5ncccc5c4)c3n2)cn1
*A* 1.2

*Q* # lookup: Euclidean distance of Nc1nc(/C(=C/CC(=O)O)C(=O)N[C@@H]2C(=O)N3C(C(=O)O)=CCS[C@H]23)cs1 [Ceftibuten dihydrate]
*A* 1.17

*Q* # lookup: Euclidean distance of CC(C)(C)C(=O)C(Oc1ccc(Cl)cc1)n1ccnc1 (stereo not given)
*A* 0.579

*Q* # lookup: Euclidean distance of N=C(N)c1ccc(N=NNc2ccc(C(=N)N)cc2)cc1 [Diminazene Aceturate]
*A* 2.06

Each recorded value in this set is attributed to the supplement of paper PMC10127200.
